system: K562; test: NCI tumour cell line growth inhibition, 48 h
The source made the active and inactive calls. Rule as the data show it: active = GI50 up to about 1.1 µM and inactive = higher.
Would you mind answering with one of these outcomes? y (active), n (inactive)

molecule	assigned_label
C#CC(C)(C)OCCCCOc1cc(O)c2c(=O)c3ccccc3n(C)c2c1	n
c1ccc(CNc2ncnc3nn[nH]c23)cc1	n
CCC(C)C(=O)OCC(=O)c1ccc(-c2ccccc2)cc1 (stereo not drawn)	n
CCC1OCCN1C(C)C (stereo not drawn)	n
CC(=O)OCCOCNC(=S)N/N=C(\C)c1cnccn1	n
CC(C)=CCC/C(C)=C/CO [GERANIOL]	n
N#Cc1c(N)nc2[nH]nc(N)c2c1-c1ccc(Cl)cc1	n
CC1=C2CCCC2C/C(=N/Nc2ccc([N+](=O)[O-])cc2[N+](=O)[O-])CC1 (stereo not drawn)	n
COc1ccc(Br)c(N/N=C2\CCCNC2=O)c1	n
CN(C)C(=S)/N=c1\ssc(=S)n1Cc1cccnc1	y

Q: Please state the recorded outcome for this molecule: CC1CC(N)=Nc2ccccc2N1 (stereo not drawn)
Result: n

Q: Hi, do you know how CC(C)C(=O)Oc1cc2c(=O)oc3c(OC(=O)C(C)C)c(OC(=O)C(C)C)cc4c(=O)oc(c1OC(=O)C(C)C)c2c34 came out in this test?
Result: n

Q: For C/C(=N\[N+](C)(C)C)c1ccc(C)c(C)c1 , which call appears in the assay record?
Result: n

----------
test system: TK-10; test: NCI tumour cell line growth inhibition, 48 h
The source made the active and inactive calls. Cut-off read from the data, not from the text of the source: active = GI50 up to about 1.1 µM and inactive = higher.
Choose the fitting class; nothing outside active, inactive is accepted.

Observe how each entry below is paired with its result.
compound	assigned_label
CCOC(=O)c1sc2nc1CSc1sc(=S)sc1SCc1nc(sc1C(=O)OCC)-c1nc(c(C(=O)OCC)s1)CSc1sc(=S)sc1SCc1nc-2sc1C(=O)OCC	inactive
Nc1nc2c(C(=O)NCc3cccs3)nnn2c2cccc(Cl)c12	inactive
O=C1C=CC2(O[C@H](C3CCCCC3)[C@@H](C3CCCCC3)O2)C(SC(=O)c2ccccc2)C1 (some centres undefined)	inactive
C[C@]12CCC[C@H](O)[C@H]1C[C@H](CO)CC2	inactive
COC1C(N)C(OC2C(Oc3cccc4c(O)c5c(=O)oc6ccc(C)c7c(=O)oc(c34)c5c67)OC(C)C(O)C2(C)O)OC(C)C1O (centres undefined)	active

Next item in the queue.
Q: Write down the call the test reported for this compound. Item: CC1(C)SCc2nc3ncccc3n21
Result: inactive

----------
test system: CCRF-CEM; assay: NCI tumour cell line growth inhibition, 48 h
Active and inactive are the calls of the source. Cut-off read from the data, not from the text of the source: active = GI50 up to about 1.1 µM and inactive = higher.
Can you answer with just one of these options? t for active, f for inactive

Answered cases to consult:
compound	assigned_label
C=C1C(=O)OC2CC1CCC1(C)OC1CCC(C)=CCCC2(C)O (stereo unspecified)	t
COc1cc2c(c(O)c1OC)CC1CCC(=O)N1C2c1cccc2ccccc12 (stereo unspecified)	f
COc1cc(Br)c(/C=N\c2cccc3ccc(OS(=O)(=O)c4cccc([N+](=O)[O-])c4)cc23)cc1OC	f
CCC1OCCN1C(C)C (stereo unspecified)	f
COc1cc2c(c(OC)c1OC)C(=O)c1c(O)cc(C)c(OC)c1C2=O	f

Q: # lookup: test call for NNC(=O)CNC(=O)c1ccc(Cl)cc1Cl
Result: f

----------
system: U-251; assay: NCI tumour cell line growth inhibition, 48 h
The source made the active and inactive calls. Cut-off read from the data, not from the text of the source: active = GI50 up to about 1.1 µM and inactive = higher. Where a SMILES comes first, the peptide text is derived from it. [ ]: non-standard residue; d: D form. The star is where a group is joined. ξ: configuration not given here. ξNMe2Val = CC(C)C(C(=O)*)N(C)C; NMeV = CN[CH](C(=O)O)C(C)C; NHBn = c1ccc(CN*)cc1
// allowed return values: true (1) (active), false (0) (inactive)

Would you please look over these solved cases?
compound	tested_system	assigned_label
CC(C)C1OC(/C=C/c2ccccc2)OCC1(C)C (centres undefined)	U-251	false (0)
CC(C)C(NC(=O)C(C(C)C)N(C)C)C(=O)N(C)C(C(=O)N1CCCC1C(=O)N1CCCC1C(=O)NCc1ccccc1)C(C)C (centres undefined) (ξNMe2Val-V[NMeV]PP-NHBn; configuration not given here)	U-251	true (1)

Q: Kindly provide the recorded test outcome for the following compound: C=C1C2CCCC1C1(S(C)(=O)=O)CCCCC21O (centres undefined)
Result: false (0)

Q: So what was the verdict on COc1ccc(C2Oc3c(cccc3-c3c(-c4ccc(O)cc4)oc4cc(O)cc(O)c4c3=O)C(=O)C2O)cc1O (centres undefined) in this test?
Result: false (0)

Q: Write down the call the test reported for this compound. Item: CC1=CC(C)C(C)N(CC2=NCCN2)c2ccccc21 (centres undefined)
Result: false (0)

Q: What classification did Nc1ncnc2c1ncn2[C@H]1C=C[C@@H](NO)C1 end up with in this test?
Result: false (0)

Q: Hi, sorry to bother you, what did the test record for COc1cc(C2c3cc4c(cc3OC(N3CCNCC3)C2C)OCO4)cc(OC)c1OC (centres undefined) ?
Result: true (1)
